Data provenance is the supplement of paper PMC10065799.

- STUDY_TARGET: Fyn (UniProt P06241)
- Sequence (P06241 whole entry, looked up): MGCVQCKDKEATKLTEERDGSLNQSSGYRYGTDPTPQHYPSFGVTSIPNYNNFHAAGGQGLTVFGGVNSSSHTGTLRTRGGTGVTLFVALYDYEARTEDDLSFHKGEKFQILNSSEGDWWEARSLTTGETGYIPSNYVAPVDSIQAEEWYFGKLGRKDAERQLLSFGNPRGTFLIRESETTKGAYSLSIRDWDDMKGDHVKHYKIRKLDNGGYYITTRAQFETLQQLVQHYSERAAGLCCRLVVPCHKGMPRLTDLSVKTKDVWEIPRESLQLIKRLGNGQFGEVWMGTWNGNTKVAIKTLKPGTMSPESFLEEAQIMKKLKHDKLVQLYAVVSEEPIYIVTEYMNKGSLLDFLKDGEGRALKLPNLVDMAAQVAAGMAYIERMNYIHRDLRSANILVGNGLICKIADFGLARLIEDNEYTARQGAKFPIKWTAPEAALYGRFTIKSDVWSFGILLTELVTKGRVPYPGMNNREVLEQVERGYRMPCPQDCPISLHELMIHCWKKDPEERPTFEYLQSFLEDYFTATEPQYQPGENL
- ASSAY_METHOD_TEXT: phosphorylation enrichment, bacterial display (enrichment ratio); higher = better substrate or ligand; peptides without Tyr show the background;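 further: 11-residue human phosphosite peptides and single-mutation variants displayed on the E. coli surface, counted by deep sequencing, each peptide's frequency after selection divided by its frequency in the unselected input library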;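 further: frequency after pTyr selection over input frequency; kinase dosed for 20-30% of maximal phosphorylation in three min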
Answer Condition not met if phosphorylation enrichment is under 0.5, and Condition met if it is 0.5 or more.

SEQUENCE_CONTENT	ASSIGNED_CATEGORY
KLQQWYREHRS [GPI_Y17]	Condition not met
FKEVVYQAMEE [TACC3_Y684_E680K]	Condition met
AELVPYFMEHH [PTPN11_Y80_Q79P_YF]	Condition met

From here, focus on the item given below.
[in] # bool: phosphorylation enrichment of TTKGAYSLSVR [YES1_Y194_I198V] >= 0.5
[out] Condition not met

----------
Attribute: phosphorylation enrichment
- STUDY_TARGET: Hck (UniProt P08631)
- Sequence (P08631 whole entry, looked up): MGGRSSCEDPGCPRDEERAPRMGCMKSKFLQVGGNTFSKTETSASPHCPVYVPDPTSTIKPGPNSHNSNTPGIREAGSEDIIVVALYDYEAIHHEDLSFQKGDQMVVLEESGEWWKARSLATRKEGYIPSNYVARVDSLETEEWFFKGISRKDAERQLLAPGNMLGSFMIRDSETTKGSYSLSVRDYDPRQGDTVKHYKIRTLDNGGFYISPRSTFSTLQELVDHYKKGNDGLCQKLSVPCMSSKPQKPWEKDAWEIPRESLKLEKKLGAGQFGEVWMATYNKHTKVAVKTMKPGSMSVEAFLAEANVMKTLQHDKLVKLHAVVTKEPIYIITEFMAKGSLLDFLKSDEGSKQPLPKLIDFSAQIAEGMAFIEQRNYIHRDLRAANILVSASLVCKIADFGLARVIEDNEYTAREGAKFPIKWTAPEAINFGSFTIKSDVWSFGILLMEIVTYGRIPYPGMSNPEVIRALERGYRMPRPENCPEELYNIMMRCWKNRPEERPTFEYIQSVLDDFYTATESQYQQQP
- ASSAY_METHOD_TEXT: phosphorylation enrichment, bacterial display (enrichment ratio); higher = better substrate or ligand; peptides without Tyr show the background
Give the figure by itself; no unit, no explanation.

Examples from the recorded data:
SEQUENCE_CONTENT	NUMBER
NVVQEYERVII [NPHS2_Y131_K126N]	0.589
SSMIDYNPLEK [MYOC_Y479]	0.512
EAKENYGKTLK [CHL1_Y291_T287A]	0.328
IDPYTYTPFGS [CYP3A4_Y432_I431T]	3.36
CTTIHYNYICN [TP53_Y234_M237I]	0.521

[in] I'd like to know its phosphorylation enrichment. The sequence in question is PPPPAYDDVAQ [TNK2_Y635]
[out] 0.439

[in] I'd like to know its phosphorylation enrichment. The sequence in question is GSSSSYGQHGS [HRNR_Y517]
[out] 0.339

[in] I'd like to know its phosphorylation enrichment. The sequence in question is RYLKDYGEFEV [GINS1_Y156_C152Y]
[out] 1

[in] I'd like to know its phosphorylation enrichment. The sequence in question is KMTGRYEMFAR [UPB1_Y362_YF]
[out] 0.505

[in] I'd like to know its phosphorylation enrichment. The sequence in question is FLTLHYDAKPQ [ANG_Y38_Q36L]
[out] 0.462

[in] I'd like to know its phosphorylation enrichment. The sequence in question is HTDDGYMPMSP [IRS1_Y612]
[out] 0.834

[in] I'd like to know its phosphorylation enrichment. The sequence in question is SNPAFYVLEGV [INPPL1_Y987_N982S_YF]
[out] 0.441

[in] I'd like to know its phosphorylation enrichment. The sequence in question is MEIHAYHKLLE [LMNA_Y376_R377H]
[out] 0.552

[in] I'd like to know its phosphorylation enrichment. The sequence in question is FETNVYVDKNL [PTCHD3_Y688_K685T]
[out] 0.578

[in] I'd like to know its phosphorylation enrichment. The sequence in question is KWRGQYDVAIR [BTK_Y425_K430R]
[out] 0.451

----------
- STUDY_TARGET: FGFR3 (UniProt P22607)
- Sequence (P22607 whole entry, looked up): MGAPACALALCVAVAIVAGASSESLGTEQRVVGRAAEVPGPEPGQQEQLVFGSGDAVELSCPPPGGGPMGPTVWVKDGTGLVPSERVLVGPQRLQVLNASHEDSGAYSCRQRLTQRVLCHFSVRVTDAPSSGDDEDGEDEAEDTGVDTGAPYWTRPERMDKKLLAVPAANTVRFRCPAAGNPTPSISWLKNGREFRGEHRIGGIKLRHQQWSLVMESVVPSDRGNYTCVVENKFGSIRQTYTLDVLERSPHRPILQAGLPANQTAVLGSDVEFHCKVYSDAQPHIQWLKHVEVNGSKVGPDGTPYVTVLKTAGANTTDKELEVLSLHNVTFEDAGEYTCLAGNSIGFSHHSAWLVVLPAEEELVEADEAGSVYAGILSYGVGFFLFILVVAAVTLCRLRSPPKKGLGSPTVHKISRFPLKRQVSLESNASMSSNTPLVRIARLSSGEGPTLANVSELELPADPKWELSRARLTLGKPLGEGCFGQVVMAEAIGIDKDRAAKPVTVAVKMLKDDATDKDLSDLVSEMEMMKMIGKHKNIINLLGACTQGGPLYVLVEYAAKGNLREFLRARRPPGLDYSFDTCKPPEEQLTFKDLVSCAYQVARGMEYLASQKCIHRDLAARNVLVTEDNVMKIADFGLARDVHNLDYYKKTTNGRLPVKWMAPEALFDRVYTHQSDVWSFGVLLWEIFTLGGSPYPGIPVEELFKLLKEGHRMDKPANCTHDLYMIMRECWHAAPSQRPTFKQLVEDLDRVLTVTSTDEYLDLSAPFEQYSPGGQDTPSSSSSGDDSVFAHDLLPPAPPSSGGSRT
- ASSAY_METHOD_TEXT: phosphorylation enrichment, bacterial display (enrichment ratio); higher = better substrate or ligand; peptides without Tyr show the background
Answer 0 (no) if phosphorylation enrichment is under 0.7, and 1 (yes) if it is 0.7 or more.

Known results for sequences:
SEQUENCE_CONTENT	STUDY_TARGET	ASSIGNED_CATEGORY
TLKDVCDDGKY [RPS6KA3_Y483_Y483C]	FGFR3 (UniProt P22607)	0 (no)
GQLIVYAPPEW [CNTN6_Y315_F314V]	FGFR3 (UniProt P22607)	0 (no)
FLNSSYINIST [IL23R_Y178_T175N_YF]	FGFR3 (UniProt P22607)	0 (no)
ENAGFYFQVSA	FGFR3 (UniProt P22607)	1 (yes)
CPYNLYAEQLS [HGD_Y40]	FGFR3 (UniProt P22607)	1 (yes)

From here, focus on the item given below.
[in] # bool: phosphorylation enrichment of QTSTDYDIRFY [CSNK2A1_Y131_L128S] >= 0.7
[out] 1 (yes)

----------
- STUDY_TARGET: FGFR3 (UniProt P22607)
- ASSAY_METHOD_TEXT: phosphorylation enrichment, bacterial display (enrichment ratio); higher = better substrate or ligand; peptides without Tyr show the background
Class boundaries, taken from values of phosphorylation enrichment, are as follows: Low = under 0.6, Medium = from 0.6 up to 0.7, High = 0.7 and over

Known results for sequences:
SEQUENCE_CONTENT	STUDY_TARGET	ASSIGNED_CATEGORY
CEAIEYLESKQ [BTK_Y511_M509I]	FGFR3 (UniProt P22607)	High
CNTIHYNYMCN [TP53_Y234_T230N]	FGFR3 (UniProt P22607)	Medium
DCAAIYGNEPE [AKR1A1_Y50]	FGFR3 (UniProt P22607)	High
YDGGCYEQLFV [MC4R_Y41_S36Y]	FGFR3 (UniProt P22607)	High

[in] Which class holds CTTVHYNFMCN [TP53_Y234_I232V_YF] ?
[out] Medium

[in] Which class holds KVPAIYGVGTR [CPS1_Y162_D165G] ?
[out] Low

----------
- STUDY_TARGET: Fes (UniProt P07332)
- Sequence (P07332 whole entry, looked up): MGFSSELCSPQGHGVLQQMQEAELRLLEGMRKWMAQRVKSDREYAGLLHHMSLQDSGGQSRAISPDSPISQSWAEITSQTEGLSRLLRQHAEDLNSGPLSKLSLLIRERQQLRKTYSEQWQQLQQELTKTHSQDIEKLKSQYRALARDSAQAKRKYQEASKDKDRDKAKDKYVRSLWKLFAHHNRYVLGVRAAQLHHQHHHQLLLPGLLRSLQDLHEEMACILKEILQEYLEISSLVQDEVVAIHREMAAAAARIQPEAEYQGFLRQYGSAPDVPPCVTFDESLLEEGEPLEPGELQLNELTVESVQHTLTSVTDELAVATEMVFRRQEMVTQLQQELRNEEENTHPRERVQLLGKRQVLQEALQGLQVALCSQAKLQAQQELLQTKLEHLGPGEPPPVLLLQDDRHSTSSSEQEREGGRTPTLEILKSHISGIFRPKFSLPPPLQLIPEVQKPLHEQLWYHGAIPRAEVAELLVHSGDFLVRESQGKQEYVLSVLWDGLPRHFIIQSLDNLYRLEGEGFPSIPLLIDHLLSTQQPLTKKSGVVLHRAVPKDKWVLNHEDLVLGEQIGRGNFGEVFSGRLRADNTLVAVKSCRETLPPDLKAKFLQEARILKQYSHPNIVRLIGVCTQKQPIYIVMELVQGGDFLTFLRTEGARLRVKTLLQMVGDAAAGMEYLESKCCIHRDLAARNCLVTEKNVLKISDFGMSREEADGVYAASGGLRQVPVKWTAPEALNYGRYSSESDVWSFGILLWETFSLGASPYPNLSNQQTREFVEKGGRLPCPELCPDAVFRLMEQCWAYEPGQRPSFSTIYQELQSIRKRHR
- ASSAY_METHOD_TEXT: phosphorylation enrichment, bacterial display (enrichment ratio); higher = better substrate or ligand; peptides without Tyr show the background
PROPERTY_LABEL: phosphorylation enrichment
Give the figure by itself; no unit, no explanation.

SEQUENCE_CONTENT	STUDY_TARGET	phosphorylation enrichment
CTTIQYNFMCN [TP53_Y234_H233Q_YF]	Fes (UniProt P07332)	1.01
VYPATYHPDHW [EFCAB12_Y544]	Fes (UniProt P07332)	0.662
STFVPCEIKVQ [L1CAM_Y784_Y784C]	Fes (UniProt P07332)	1.61
RSSKMYPKTRS [LPL_Y329_L330P]	Fes (UniProt P07332)	0.675

[in] I'd like to know its phosphorylation enrichment. The sequence in question is VAVVQYSGMGQ [COL6A1_Y878_T881M]
[out] 0.757

[in] I'd like to know its phosphorylation enrichment. The sequence in question is GTSLIYWTLFT [G6PC3_Y214]
[out] 1.97

[in] I'd like to know its phosphorylation enrichment. The sequence in question is FYDANCDGKEY [MAPRE2_Y162_Y162C]
[out] 1.4

----------
- STUDY_TARGET: FGFR1 (UniProt P11362)
- Sequence (P11362 whole entry, looked up): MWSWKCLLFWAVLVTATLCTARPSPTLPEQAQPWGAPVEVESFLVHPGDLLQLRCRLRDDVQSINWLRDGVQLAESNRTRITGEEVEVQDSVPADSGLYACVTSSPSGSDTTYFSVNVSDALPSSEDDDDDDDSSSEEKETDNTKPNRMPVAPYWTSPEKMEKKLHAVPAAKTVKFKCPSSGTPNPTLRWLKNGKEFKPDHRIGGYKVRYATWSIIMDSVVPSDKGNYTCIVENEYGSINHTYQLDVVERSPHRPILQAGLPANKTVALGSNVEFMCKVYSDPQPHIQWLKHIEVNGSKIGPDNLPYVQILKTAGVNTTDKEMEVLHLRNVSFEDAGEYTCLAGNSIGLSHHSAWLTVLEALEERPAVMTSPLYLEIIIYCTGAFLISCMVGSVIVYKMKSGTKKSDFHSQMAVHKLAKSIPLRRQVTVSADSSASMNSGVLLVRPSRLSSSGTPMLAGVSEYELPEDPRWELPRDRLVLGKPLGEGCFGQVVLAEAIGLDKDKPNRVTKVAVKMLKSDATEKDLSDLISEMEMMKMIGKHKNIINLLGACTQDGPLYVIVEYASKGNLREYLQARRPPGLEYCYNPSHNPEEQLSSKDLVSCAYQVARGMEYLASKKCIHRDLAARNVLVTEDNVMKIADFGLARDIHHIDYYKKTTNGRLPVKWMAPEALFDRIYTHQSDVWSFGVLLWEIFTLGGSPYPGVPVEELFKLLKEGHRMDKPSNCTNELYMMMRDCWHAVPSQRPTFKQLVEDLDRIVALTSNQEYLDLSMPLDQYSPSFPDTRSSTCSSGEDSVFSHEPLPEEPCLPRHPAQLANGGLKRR
- ASSAY_METHOD_TEXT: phosphorylation enrichment, bacterial display (enrichment ratio); higher = better substrate or ligand; peptides without Tyr show the background
PROPERTY_LABEL: phosphorylation enrichment
Give the figure by itself; no unit, no explanation.

Examples from the recorded data:
SEQUENCE_CONTENT	phosphorylation enrichment
WFQTKYEELQV [KRT6B_Y360_I365V_YF]	0.478
RLEGVYGNNID [PTEN_Y46_R47G]	0.485

Now for another entry.
[in] I'd like to know its phosphorylation enrichment. The sequence in question is KHMADYPDFKF [SOX11_Y113_YF]
[out] 0.62

----------
- System: c-Src
- ASSAY_METHOD_TEXT: phosphorylation enrichment, bacterial display (enrichment ratio); higher = better substrate or ligand; peptides without Tyr show the background
PROPERTY_LABEL: phosphorylation enrichment

[in] I'd like to know its phosphorylation enrichment. The sequence in question is EEGNPYYSGAR [MCCC2_Y520_S523G]
[out] 1.83

[in] I'd like to know its phosphorylation enrichment. The sequence in question is DEDYLYREELA [POR_Y575]
[out] 0.535

[in] I'd like to know its phosphorylation enrichment. The sequence in question is DAVKHYMQFQK [CNGA2_Y395_R399Q]
[out] 0.485

[in] I'd like to know its phosphorylation enrichment. The sequence in question is IWDLKYTIENP [SND1_Y178_R174W]
[out] 0.688

[in] I'd like to know its phosphorylation enrichment. The sequence in question is RREQDYTNLPS [CSF1R_Y923_R921Q]
[out] 0.446

----------
- STUDY_TARGET: Fes (UniProt P07332)
- ASSAY_METHOD_TEXT: phosphorylation enrichment, bacterial display (enrichment ratio); higher = better substrate or ligand; peptides without Tyr show the background
PROPERTY_LABEL: phosphorylation enrichment
Give the figure by itself; no unit, no explanation.

Examples from the recorded data:
SEQUENCE_CONTENT	phosphorylation enrichment
QLHEHYKIHKE [NSMAF_Y626]	0.95
RSSGGYEPRGC [FUS_Y239_R244C]	0.533
EEEPVYKAEPE [HCLS1_Y360_E361K]	1.49
TTKGSYSLSVR [HCK_Y180]	0.727

Now for another entry.
[in] I'd like to know its phosphorylation enrichment. The sequence in question is SSENPYATIKD [MEGF10_Y1030]
[out] 0.897
